This collection of values is drawn from patent US9163015B2.

system.under.test: human mGluR4 (Homo sapiens (Human), UniProt Q14833)
Sequence (Q14833 33-912): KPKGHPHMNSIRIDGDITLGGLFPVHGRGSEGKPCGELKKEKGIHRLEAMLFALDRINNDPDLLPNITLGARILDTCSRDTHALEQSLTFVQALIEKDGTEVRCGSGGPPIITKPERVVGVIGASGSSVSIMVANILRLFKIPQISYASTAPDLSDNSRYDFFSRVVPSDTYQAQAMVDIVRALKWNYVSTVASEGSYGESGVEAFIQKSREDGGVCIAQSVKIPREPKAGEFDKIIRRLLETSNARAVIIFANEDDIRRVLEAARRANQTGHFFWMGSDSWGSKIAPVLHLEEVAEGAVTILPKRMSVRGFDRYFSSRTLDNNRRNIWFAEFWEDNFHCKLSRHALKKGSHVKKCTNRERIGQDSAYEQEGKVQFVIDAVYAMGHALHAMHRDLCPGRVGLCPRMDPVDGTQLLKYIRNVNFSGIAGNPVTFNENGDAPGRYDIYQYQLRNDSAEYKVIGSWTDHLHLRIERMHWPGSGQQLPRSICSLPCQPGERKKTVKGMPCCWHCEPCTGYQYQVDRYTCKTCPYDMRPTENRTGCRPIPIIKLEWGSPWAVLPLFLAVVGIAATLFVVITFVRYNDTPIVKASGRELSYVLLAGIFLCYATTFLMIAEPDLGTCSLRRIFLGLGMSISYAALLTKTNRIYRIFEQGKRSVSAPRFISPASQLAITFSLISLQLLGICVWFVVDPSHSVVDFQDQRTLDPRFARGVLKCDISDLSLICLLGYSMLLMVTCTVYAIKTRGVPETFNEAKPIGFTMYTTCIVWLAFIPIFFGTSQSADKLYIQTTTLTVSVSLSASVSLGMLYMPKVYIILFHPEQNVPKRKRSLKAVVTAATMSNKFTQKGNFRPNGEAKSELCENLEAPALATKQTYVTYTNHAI
method.description: mGluR4 potentiation assay, CHO cells transfected with human mGluR4, Ca2+-sensitive fluorescent dye, EC20 agonist
condition.summary: potentiation of mGluR4; table does not state human or rat receptor
assay.metric: EC50 (nM)
Numbers only here, please. The scale is nM.

Dear colleague, I am looking for the recorded EC50 of the following molecule: `COc1cccc(Nc2n[nH]c3cccnc23)c1`
169

Next molecule up: `Fc1cc(Nc2n[nH]c3cccnc23)ccc1Oc1cc(C(F)(F)F)ccn1`
497

Next molecule up: `Fc1cc(F)cc(Nc2n[nH]c3cccnc23)c1`
101

Next molecule up: `Clc1cccc(Nc2n[nH]c3cccnc23)c1`
138

Next molecule up: `Clc1cc(N(c2ncccn2)c2n[nH]c3cccnc23)ccc1Oc1ncccn1`
9070

Next molecule up: `Fc1ccc(Nc2n[nH]c3cccnc23)cc1F`
644

Next molecule up: `Clc1cncc(Nc2n[nH]c3cccnc23)c1`
353

Next molecule up: `Cn1nc2cccnc2c1Nc1ccc(F)c(Cl)c1`
11900

Next molecule up: `Clc1cc(Cl)cc(Nc2n[nH]c3cccnc23)c1`
43

Next molecule up: `Cc1cncc(Nc2n[nH]c3cccnc23)c1`
7380

###

Would you kindly list pEC50 for each of these compounds?
system.under.test: human mGluR4 (Homo sapiens (Human), UniProt Q14833)
method.description: mGluR4 potentiation assay, CHO cells transfected with human mGluR4, Ca2+-sensitive fluorescent dye, EC20 agonist
condition.summary: potentiation of mGluR4; table does not state human or rat receptor
In textbook form, pEC50 equals minus log to base ten of the concentration in mol/L.

Dear colleague, I am looking for the recorded pEC50 of the following compound: `CS(=O)(=O)c1ccc(Nc2n[nH]c3cccnc23)cc1Cl`
5.10

Next compound up: `Clc1cccc(Oc2ccc(Nc3n[nH]c4cccnc34)cc2Cl)n1`
7.06

Next compound up: `Fc1cc(F)c(F)c(Nc2n[nH]c3cccnc23)c1`
6.11

Next compound up: `Cc1ccc(Nc2n[nH]c3cccnc23)cc1Cl`
6.78

Next compound up: `Clc1cc(Nc2n[nH]c3cccnc23)cnc1N1CCOCC1`
5.62

Next compound up: `Cc1cc(Nc2n[nH]c3cccnc23)ccc1F`
7.17

Next compound up: `Clc1cc(Nc2n[nH]c3cccnc23)cc(Cl)c1Cl`
6.14

Next compound up: `Fc1ccc(Nc2n[nH]c3scnc23)cc1Cl`
5.93

Next compound up: `CN1C(=O)COc2ccc(Nc3n[nH]c4cccnc34)cc21`
5.09

Next compound up: `Fc1ccc2[nH]nc(Nc3ccc(F)c(Cl)c3)c2n1`
6.51

Next compound up: `Fc1ccc(Nc2n[nH]c3cncnc23)cc1Cl`
5.51

Next compound up: `COc1ccc(Nc2n[nH]c3cccnc23)cc1Cl`
6.55

Next compound up: `Cc1cccc(Nc2n[nH]c3cccnc23)c1`
7.29

Next compound up: `Fc1ccc(CNc2n[nH]c3cccnc23)cc1Cl`
5.15

Next compound up: `Cc1cc(Nc2n[nH]c3cccnc23)ccc1Cl`
6.79

Next compound up: `Clc1cccc(Nc2c[nH]c3cccnc23)c1`
5.20

Next compound up: `CC(C)(C)c1cccc(Nc2n[nH]c3cccnc23)c1`
5.10

Next compound up: `Clc1cncc(Nc2n[nH]c3cccnc23)n1`
5.00

Next compound up: `c1ccc(Nc2n[nH]c3cccnc23)cc1`
5.84

Next compound up: `Fc1ccc(Nc2n[nH]c3nccnc23)cc1Cl`
6.81

Next compound up: `Fc1cccc(Nc2n[nH]c3cccnc23)c1`
6.23

###

system.under.test: human mGluR4 (Homo sapiens (Human))
method.description: mGluR4 potentiation assay, CHO cells transfected with human mGluR4, Ca2+-sensitive fluorescent dye, EC20 agonist
condition.summary: potentiation of mGluR4; table does not state human or rat receptor
assay.metric: pEC50
In textbook form, pEC50 equals minus log to base ten of the concentration in mol/L.

Dear colleague, I am looking for the recorded pEC50 of the following compound: `c1ccc2ncc(Nc3n[nH]c4cccnc34)cc2c1`
6.02

Next compound up: `COc1ccc(Nc2n[nH]c3cccnc23)cc1OC(F)F`
6.05

Next compound up: `Fc1cc(Nc2n[nH]c3cccnc23)ccc1Oc1ncccn1`
5.56

Next compound up: `Fc1cc(Nc2n[nH]c3cccnc23)ccc1Oc1ccc(Cl)cn1`
6.82

Next compound up: `CNc1ncc(Nc2n[nH]c3cccnc23)cc1Cl`
5.19

Next compound up: `Cc1cc(NC(=O)Nc2n[nH]c3cccnc23)ccc1F`
5.16

Next compound up: `c1cnc2c(Nc3cncnc3)n[nH]c2c1`
5.05

Next compound up: `Fc1cc(Cl)cc(Nc2n[nH]c3cccnc23)c1`
7.49

Next compound up: `COc1cc(Nc2n[nH]c3cccnc23)ccc1Cl`
5.95

Next compound up: `Clc1cc(Nc2n[nH]c3cccnc23)ccc1OCc1ccccc1`
6.37

Next compound up: `Fc1c(Cl)cc(Nc2n[nH]c3cccnc23)cc1Cl`
6.39

Next compound up: `Clc1cc(Nc2n[nH]c3cccnc23)cnc1N1CCCC1`
5.81

Next compound up: `Clc1cccc(CNc2n[nH]c3cccnc23)c1`
4.76

Next compound up: `Clc1cc(Nc2n[nH]c3cccnc23)cnc1Cl`
5.99

Next compound up: `Fc1ncc(Cl)cc1Nc1n[nH]c2cccnc12`
6.22

Next compound up: `c1cnc2c(Nc3nccs3)n[nH]c2c1`
5.00

###

system.under.test: human mGluR4 (Homo sapiens (Human))
method.description: mGluR4 potentiation assay, CHO cells transfected with human mGluR4, Ca2+-sensitive fluorescent dye, EC20 agonist
condition.summary: potentiation of mGluR4; table does not state human or rat receptor
assay.metric: pEC50
In textbook form, pEC50 equals minus log to base ten of the concentration in mol/L.

Dear colleague, I am looking for the recorded pEC50 of the following compound: FC(F)(F)c1cc(Nc2n[nH]c3cccnc23)cc(C(F)(F)F)c1 [Example 67]
5.52

Next compound up: Cc1ccc(NC(=O)Nc2n[nH]c3cccnc23)cc1C [Example 44]
4.89

Next compound up: Cc1ccc(Cl)cc1Nc1n[nH]c2cccnc12 [Example 78]
6.39

Next compound up: CC(C)C1CCC(Nc2n[nH]c3cccnc23)CC1 (stereo not shown) [Example 29]
5.28

Next compound up: Cc1ccc(F)c(Nc2n[nH]c3cccnc23)c1 [Example 84]
6.50

Next compound up: Fc1cc(Nc2n[nH]c3cccnc23)cc(F)c1F [Example 80]
6.84

Next compound up: Fc1ccc(Cl)cc1Nc1n[nH]c2cccnc12 [Example 16]
6.94

Next compound up: O=C(c1ccccc1)c1ccc(Nc2n[nH]c3cccnc23)cc1Cl [Example 64]
6.45

Next compound up: CCc1cccc(Nc2n[nH]c3cccnc23)c1 [Example 60]
5.59

Next compound up: Clc1ccc(Oc2ccc(Nc3n[nH]c4cccnc34)cc2Cl)cc1 [Example 81]
5.81

###

system.under.test: human mGluR4 (Homo sapiens (Human))
method.description: mGluR4 potentiation assay, CHO cells transfected with human mGluR4, Ca2+-sensitive fluorescent dye, EC20 agonist
Format: cell-based
condition.summary: potentiation of mGluR4; table does not state human or rat receptor
Would you kindly list pEC50 for each of these compounds?
In textbook form, pEC50 equals minus log to base ten of the concentration in mol/L.

Dear colleague, I am looking for the recorded pEC50 of the following compound: Fc1c(Cl)cccc1Nc1n[nH]c2cccnc12 [Example 17]
6.21

Next compound up: Clc1cc(Nc2n[nH]c3cccnc23)ccn1 [Example 23]
5.83

Next compound up: Clc1cc(Nc2n[nH]c3cccnc23)ccc1Oc1ncccn1 [Example 24]
6.94

Next compound up: CN1C(=O)N(c2ccc(Nc3n[nH]c4cccnc34)cc2Cl)C(=O)C1C(C)(C)C (stereo not shown) [Example 35]
6.12

Next compound up: Clc1ccc(Nc2n[nH]c3cccnc23)cn1 [Example 15]
5.26

Next compound up: FC(F)(F)c1ccc(Nc2n[nH]c3cccnc23)cc1Cl [Example 22]
5.67

Next compound up: Oc1ccc(Nc2n[nH]c3cccnc23)cc1F [Example 73]
6.46

Next compound up: Clc1ccc(Nc2n[nH]c3cccnc23)cc1Cl [Example 68]
6.95

Next compound up: N#Cc1ccc(Nc2n[nH]c3cccnc23)cc1Cl [Example 21]
7.03

Next compound up: FC(F)Oc1cccc(Nc2n[nH]c3cccnc23)c1 [Example 9]
6.60

###

system.under.test: human mGluR4 (Homo sapiens (Human), UniProt Q14833)
method.description: mGluR4 potentiation assay, CHO cells transfected with human mGluR4, Ca2+-sensitive fluorescent dye, EC20 agonist
condition.summary: potentiation of mGluR4; table does not state human or rat receptor
assay.metric: EC50 (µM)
Numbers only here, please. The scale is µM.

Dear colleague, I am looking for the recorded EC50 of the following compound: `Fc1cc(F)c(Nc2n[nH]c3cccnc23)cc1Cl`
0.342

Next compound up: `Oc1ccc(Nc2n[nH]c3cccnc23)cc1Cl`
0.217

Next compound up: `O=C(c1ccccc1F)c1ccc(Nc2n[nH]c3cccnc23)cc1Cl`
0.311

Next compound up: `FC(F)(F)c1cccc(Nc2n[nH]c3cccnc23)c1`
0.145

Next compound up: `Cn1ccc2ccc(Nc3n[nH]c4cccnc34)cc21`
3.59

Next compound up: `Clc1cc(Nc2n[nH]c3cccnc23)ccc1Oc1ccccn1`
0.112

Next compound up: `Fc1ccc(Nc2n[nH]c3cccnc23)cc1`
1.42

Next compound up: `Fc1cc(Nc2n[nH]c3cccnc23)cc(C(F)(F)F)c1`
0.217

Next compound up: `Clc1ccnc(Nc2n[nH]c3cccnc23)c1`
0.284

Next compound up: `Clc1cc(Nc2n[nH]c3cccnc23)cnc1Oc1ccccn1`
3.36

Next compound up: `c1cnc2c(NCC3CCCCC3)n[nH]c2c1`
5.3

Next compound up: `COc1cc(Nc2n[nH]c3cccnc23)ccc1F`
1.03

Next compound up: `CN(c1cccc(Cl)c1)c1n[nH]c2cccnc12`
8.01

Next compound up: `Clc1cc(Nc2n[nH]c3cccnc23)ccc1Oc1cnccn1`
0.108

Next compound up: `CS(=O)(=O)c1ccc(Nc2n[nH]c3cccnc23)cc1F`
11.5

Next compound up: `CS(=O)(=O)c1cc(Nc2n[nH]c3cccnc23)ccc1F`
9.1

Next compound up: `O=C(c1cccc(C(F)(F)F)c1)c1ccc(Nc2n[nH]c3cccnc23)cc1Cl`
3.88

Next compound up: `Cc1cc(C)cc(Nc2n[nH]c3cccnc23)c1`
0.177

Next compound up: `Fc1cncc(Nc2n[nH]c3cccnc23)c1`
9.18

Next compound up: `Fc1ccc(Nc2n[nH]c3cccnc23)cc1C(F)(F)F`
0.385

Next compound up: CC1Oc2ccc(Nc3n[nH]c4cccnc34)cc2N(C)C1=O (stereo not drawn)
8.34
